# experimentalTarget: T1, HLA-B*44:05 (human)
# T1 construct: also called peptide-receptive MHC class I molecule
# assayRemarks: UV peptide exchange, anti-b2m ELISA
Listing of entries alongside the reported peptide exchange yield.

Example entries and their recorded answers appear below.
binder	observedResult
DESADSEPHKY	10 to 20%
SEYPTKNYV	20 to 50%
SEIYQPRGF	50 to 75%

Switching to the query record.
Req: GET /values?readout=peptide exchange yield&item= `YEHAFNSIVW`
Resp: > 75%
